Listing of entries alongside the reported Max % death with 1 μM FO.
Tested on: HeLa MKYP cells
Test: Cell death measured by DAPI staining, with 1 μM FCCP/oligomycin or no toxin (no FO)
Type: cell-based
Conditions: with 1 μM FO
The response must be a number in % with no trailing unit.

Would you please look over these solved cases?
[[record]]
compound = "Fc1ccc2c(c1)OC[C@H](N1C[C@H]3COC[C@@H]3C1)[C@H]2Nc1ncnc2[nH]c(C(F)(F)F)cc12 (single isomer, unassigned) [EP-0040563]"
readout_number = 9.7

[[record]]
compound = "C[C@@H]1CN([C@@H]2COc3ccccc3[C@H]2Nc2ncnc3[nH]c(C(F)(F)F)cc23)C[C@H](C)O1 [EP-0040943]"
readout_number = 20.9

[[record]]
compound = "C[C@@H]1CN([C@H]2COc3ccccc3[C@@H]2Nc2ncnc3[nH]c(C(F)(F)F)cc23)CCO1 [EP-0040955]"
readout_number = 3.4


Return Max % death with 1 μM FO for the following compound: C[C@@H]1CN([C@@H]2CCc3ccccc3[C@H]2Nc2ncnc3[nH]c(C(F)(F)F)cc23)C[C@H](C)O1 (single isomer, unassigned) [EP-0040494] 4.1

Return Max % death with 1 μM FO for the following compound: N#Cc1cn([C@@H]2CCc3ccccc3[C@@H]2Nc2ncnc3[nH]c(C(F)(F)F)cc23)cn1 [EP-0039748] 6.5

Return Max % death with 1 μM FO for the following compound: COCC1CC([C@H]2COc3ccccc3[C@@H]2Nc2ncnc3[nH]c(C(F)(F)F)cc23)C1 (some centres unmarked) [EP-0041260] 10.2

Return Max % death with 1 μM FO for the following compound: Fc1ccc2c(c1)OC[C@H](N1C[C@@H]3COC[C@H]3C1)[C@H]2Nc1ncnc2[nH]c(C3CC3)cc12 (single isomer, unassigned) [EP-0040644] 8.1

Return Max % death with 1 μM FO for the following compound: COC[C@H]1CCN([C@H]2COc3ccccc3[C@@H]2Nc2ncnc3[nH]c(C(F)(F)F)cc23)C1 (single isomer, unassigned) [EP-0041174] 4.6

The reported numbers originate from patent US20240018146A1.
